Biological target: Muscarinic acetylcholine receptor M3 (Homo sapiens)
Sequence (P20309 whole entry): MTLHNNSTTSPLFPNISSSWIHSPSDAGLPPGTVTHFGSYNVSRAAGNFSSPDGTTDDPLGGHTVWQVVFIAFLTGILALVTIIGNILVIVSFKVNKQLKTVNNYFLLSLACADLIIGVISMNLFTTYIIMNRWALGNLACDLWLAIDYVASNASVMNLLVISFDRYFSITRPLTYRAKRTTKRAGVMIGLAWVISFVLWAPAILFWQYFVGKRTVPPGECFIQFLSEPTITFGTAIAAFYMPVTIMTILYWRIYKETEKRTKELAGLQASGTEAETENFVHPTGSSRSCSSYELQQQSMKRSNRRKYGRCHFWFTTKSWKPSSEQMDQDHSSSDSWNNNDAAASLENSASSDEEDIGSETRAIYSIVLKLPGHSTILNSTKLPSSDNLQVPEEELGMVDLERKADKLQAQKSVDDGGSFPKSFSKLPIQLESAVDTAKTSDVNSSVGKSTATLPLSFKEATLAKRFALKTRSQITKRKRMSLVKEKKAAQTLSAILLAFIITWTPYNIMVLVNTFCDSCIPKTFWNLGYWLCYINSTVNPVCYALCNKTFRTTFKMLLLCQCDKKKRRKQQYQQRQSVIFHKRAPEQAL
Experiment: Antagonist activity at human cloned muscarinic M3 receptor expressed in CHO cells assessed as inhibition of acetylcholine-induced calcium mobilization by single concentration kinetic based-FLIPR assay
Type: functional, cell-based
Settings: read-out: pA2 (converted)
outcome_measure: Kb (nM)

- input_smiles: "OC(c1ccccc1)(c1ccccc1)C12CC[N+](CCOc3ccccc3)(CC1)CC2"
  reading: 0.794
- input_smiles: "Cc1ccc(COCC[N+]23CCC(C(O)(c4ccccc4)c4ccccc4)(CC2)CC3)cc1"
  reading: 0.0398
- input_smiles: "OC(c1ccccc1)(c1ccccc1)C12CC[N+](CCOCc3ccccc3)(CC1)C2"
  reading: 0.398
- input_smiles: "OC(c1ccc(F)cc1)(c1ccc(F)cc1)C12CC[N+](CCOCc3ccccc3)(CC1)CC2"
  reading: 0.0631
- input_smiles: "OC(c1ccccc1)(c1ccccc1)C12CC[N+](CCOCc3ccc(Br)cc3)(CC1)CC2"
  reading: 0.0398
- input_smiles: "OC(c1ccccc1)(c1ccccc1)C12CC[N+](CCOCc3ccccc3F)(CC1)CC2"
  reading: 0.0398
- input_smiles: "N#CC(c1ccccc1)(c1ccccc1)C12CC[N+](CCOCc3ccccc3)(CC1)C2"
  reading: 0.501
- input_smiles: "Cc1ccccc1COCC[N+]12CCC(C(O)(c3ccccc3)c3ccccc3)(CC1)CC2"
  reading: 3.98
- input_smiles: "NCC[N+]12CCC(C(O)(c3ccccc3)c3ccccc3)(CC1)CC2"
  reading: 0.398
- input_smiles: "OC(c1ccccc1)(c1ccccc1)C12CC[N+](CCCCc3ccccc3)(CC1)CC2"
  reading: 0.501
- input_smiles: "OC(c1ccccc1)(c1ccccc1)C12CC[N+](CCOCc3cccc(Br)c3)(CC1)CC2"
  reading: 0.126
- input_smiles: "COc1cccc(COCC[N+]23CCC(C(O)(c4ccccc4)c4ccccc4)(CC2)CC3)c1"
  reading: 2
- input_smiles: "OC(c1ccccc1)(c1ccccc1)C12CC[N+](CCOCc3ccc(Cl)cc3)(CC1)CC2"
  reading: 0.0631
- input_smiles: "OC(c1ccccc1)(c1ccccc1)C12CC[N+](CCCCOc3ccccc3)(CC1)CC2"
  reading: 10
- input_smiles: "OC(c1cccc(F)c1)(c1cccc(F)c1)C12CC[N+](CCOCc3ccccc3)(CC1)CC2"
  reading: 0.251
- input_smiles: "N#Cc1ccc(COCC[N+]23CCC(C(O)(c4ccccc4)c4ccccc4)(CC2)CC3)cc1"
  reading: 0.398
- input_smiles: "OC(c1ccccc1)(c1ccccc1)C12CC[N+](CCOCc3cccc(F)c3)(CC1)CC2"
  reading: 0.0251
- input_smiles: "Cc1cccc(COCC[N+]23CCC(C(O)(c4ccccc4)c4ccccc4)(CC2)CC3)c1"
  reading: 0.1
- input_smiles: "OC(c1ccccc1)(c1ccccc1)C12CC[N+](CCOCc3ccc(F)cc3)(CC1)CC2"
  reading: 0.0794
- input_smiles: "OC(c1ccccc1)(c1ccccc1)C12CC[N+](CCOCc3ccccc3Br)(CC1)CC2"
  reading: 3.16
